Biological target: androgen receptor (Homo sapiens, UniProt P10275)
Sequence (P10275 whole entry, species assumed): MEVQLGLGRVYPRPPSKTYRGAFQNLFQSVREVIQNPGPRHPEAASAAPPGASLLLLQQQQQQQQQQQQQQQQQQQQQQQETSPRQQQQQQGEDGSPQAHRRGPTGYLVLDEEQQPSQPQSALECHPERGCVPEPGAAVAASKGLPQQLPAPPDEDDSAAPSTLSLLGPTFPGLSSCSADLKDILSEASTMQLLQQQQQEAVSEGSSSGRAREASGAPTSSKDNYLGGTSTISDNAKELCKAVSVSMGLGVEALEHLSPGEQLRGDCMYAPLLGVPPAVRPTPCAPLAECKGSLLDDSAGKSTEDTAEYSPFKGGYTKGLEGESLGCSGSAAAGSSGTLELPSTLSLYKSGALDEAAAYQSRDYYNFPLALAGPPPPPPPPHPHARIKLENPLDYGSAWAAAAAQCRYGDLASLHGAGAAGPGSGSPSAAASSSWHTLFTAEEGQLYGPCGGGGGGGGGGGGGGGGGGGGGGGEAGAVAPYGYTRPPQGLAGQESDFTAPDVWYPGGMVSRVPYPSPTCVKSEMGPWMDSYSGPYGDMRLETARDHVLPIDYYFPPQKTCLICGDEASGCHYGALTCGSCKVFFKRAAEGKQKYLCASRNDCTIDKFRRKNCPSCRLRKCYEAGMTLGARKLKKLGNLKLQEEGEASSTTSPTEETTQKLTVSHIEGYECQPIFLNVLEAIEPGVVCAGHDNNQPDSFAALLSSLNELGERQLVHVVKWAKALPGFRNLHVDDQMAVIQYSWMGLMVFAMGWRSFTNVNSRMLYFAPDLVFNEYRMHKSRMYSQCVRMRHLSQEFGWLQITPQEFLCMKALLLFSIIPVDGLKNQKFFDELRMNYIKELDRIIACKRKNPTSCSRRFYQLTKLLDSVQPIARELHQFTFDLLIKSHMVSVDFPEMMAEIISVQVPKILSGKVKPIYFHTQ
Assay type: cell-based
Set-up: expressed in transfected cells
Settings: mammalian two-hybrid, Huh-7 cells, ligand RU486
Measured Property: luciferase normalized to β-galactosidase, RU486
Answers are plain numbers.

Some substances with known luciferase normalized to β-galactosidase, RU486 results, for comparison:
EFRSSVFEQMYLCTGGSLDLQPS* [B5G11]; 0.1051
EFHSRLRVEVVSWGIGSTCSQANSGRISYDL* [B8H3]; 3.879
HPTHSSRLWELLMEATPTM [D30]; 0.8461

Now for the substance whose luciferase normalized to β-galactosidase, RU486 we want.
Annotate the substance EFQQCMCAEVKSWLGGSLDLQPS* [B8E9] with its measured luciferase normalized to β-galactosidase, RU486. 10.1916
